test: AUC (0 to infinity) in Wistar rat at 5 mg/kg, iv; assay type: ADME, organism-based; set-up: time infinity, dose 5 mg/kg, route intravenous; details: plasma
readoutType: AUC(0-inf) (ng·h/mL)
Response body: numeric value in ng·h/mL, unit text excluded.

If you can, please state the reported AUC(0-inf) value of `O=C(O)[C@@H]1CCS(=O)(=O)N1Cc1cccc(COc2ccc(-c3cc(F)c(F)cc3F)cc2)c1` .
19900

###

Listed compounds paired with reported log10 Activity
target: Glycogen [starch] synthase, muscle (Homo sapiens); assay: Activation of GYS1 in human skeletal muscle cells using [14C]-D-glucose assessed as 2.5 fold increase radiolabelled glycogen after 5 hrs by Topcounting
Plainly stated, the numbers are log10 of Activity given in µM.

Example entries and their recorded answers appear below.
INSERT INTO assay_data (smilesstructure, experimentalsystem, readouttype, measuredvalue) VALUES
  ('CCN(CC(=O)O)Cc1cccc(COc2ccc(-c3cc(F)c(F)cc3OC)cc2)c1', 'Glycogen [starch] synthase, muscle (Homo sapiens)', 'log10 Activity', 0.57),
  ('CCN(CC(=O)O)C(=O)c1cccc(COc2ccc(-c3cc(F)c(F)cc3OC)cc2)c1', 'Glycogen [starch] synthase, muscle (Homo sapiens)', 'log10 Activity', -0.80),
  ('Cc1cc(F)c(F)cc1-c1ccc(OCc2cccc(CN3[C@H](C(=O)O)CCS3(=O)=O)c2)cc1', 'Glycogen [starch] synthase, muscle (Homo sapiens)', 'log10 Activity', 0.15),
  ('COc1cc(F)c(F)cc1-c1ccc(OCc2cccc(CN(CC(=O)O)C(=O)C3CCC3)c2)cc1', 'Glycogen [starch] synthase, muscle (Homo sapiens)', 'log10 Activity', 0.38);

Field: next compound
Quick check: log10 Activity on Glycogen [starch] synthase, muscle (Homo sapiens), item `COc1cc(F)c(F)cc1-c1ccc(OCc2cccc(CN3[C@H](C(=O)O)CCS3(=O)=O)c2)cc1` ?
-0.52
